# ASSAYED TARGET: T1, monoclonal antibody 3C4
# T1 construct: also called mAb 3C4; 3C4 (3CY)
# T1 sequence (VH, as listed by the source, chain 1 of 2): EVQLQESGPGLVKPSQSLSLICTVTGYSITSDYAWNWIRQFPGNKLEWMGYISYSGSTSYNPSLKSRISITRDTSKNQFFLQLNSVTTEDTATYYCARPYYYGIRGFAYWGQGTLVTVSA
# T1 sequence (VL, as listed by the source, chain 2 of 2): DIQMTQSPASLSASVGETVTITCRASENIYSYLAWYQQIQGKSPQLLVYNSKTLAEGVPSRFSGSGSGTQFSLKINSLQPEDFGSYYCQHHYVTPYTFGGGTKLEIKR
# MEASUREMENT DESCRIPTION: SPR, 3C4 immobilised, phagemid injected
Positions of bridges follow the written chain, without caps; N, C: chain ends. No end group written: not given here.
Item-by-item account of Phage bound (RU)
Only the number, expressed in RU, is required.

These solved cases illustrate the format of a correct answer.
{"BINDER": "CSFRYLWDQDRCS (disulfide 1-12 (inferred); also: displayed on phage (phagemid)) [phagemid CS1-6p (phage-displayed disulfide cyclized 13 mer peptide)]", "MEASUREMENT UNITS": "RU", "TEST RESULT": 24}
{"BINDER": "CSGLYPWDYFMCS (disulfide 1-12 (inferred); also: displayed on phage (phagemid)) [phagemid CS1-29p (phage-displayed disulfide cyclized 13 mer peptide)]", "MEASUREMENT UNITS": "RU", "TEST RESULT": 20}
{"BINDER": "CSFRYQWDMFRCS (disulfide 1-12 (inferred); also: displayed on phage (phagemid)) [phagemid CS1-11p (phage-displayed disulfide cyclized 13 mer peptide)]", "MEASUREMENT UNITS": "RU", "TEST RESULT": 32}
{"BINDER": "CSGLYPWDMFRCS (disulfide 1-12 (inferred); also: displayed on phage (phagemid)) [phagemid CS1-9p (phage-displayed disulfide cyclized 13 mer peptide)]", "MEASUREMENT UNITS": "RU", "TEST RESULT": 35}
{"BINDER": "CSLFYLWDQDRCS (disulfide 1-12 (inferred); also: displayed on phage (phagemid), coat fusion not given here) [phagemid CS1-2p (phage-displayed disulfide cyclized 13 mer peptide)]", "MEASUREMENT UNITS": "RU", "TEST RESULT": 4}

Next binder, please.
So for CSFFYSLCYCWCS (disulfide (positions not given here); also: four Cys, disulfide pairing not given here, also called CSI-31p) [phagemid CS1-31p (phage-displayed disulfide cyclized 13 mer peptide)] , the logged Phage bound (RU) turned out to be 42
